# Test system: HPV-16
# test description: qPCR sensitivity against HPV-HNSCC tumor samples diluted among 10 ng normal human DNA
# experimental parameters: Sample # 22
The reader will find reported Threshold of tumor cell numbers for HPV-16 detection values listed item by item below.
Kindly report the value followed by its unit.

Below: 2 molecules and their reported Threshold of tumor cell numbers for HPV-16 detection.
{"columns": ["molecule", "assay value"],
 "data": [
  ["BR E1-6: HPV-16 E1 region primer/probe set, SEQ ID NO: 43-45 (nucleic acid, chemistry not given here) DNA 1: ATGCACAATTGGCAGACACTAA DNA 2: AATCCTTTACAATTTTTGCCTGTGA DNA 3: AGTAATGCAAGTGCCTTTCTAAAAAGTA", "0.3 tumor cells"],
  ["BR E1-5: HPV-16 E1 region primer/probe set, SEQ ID NO: 40-42 (same as SEQ ID NO: 1-3) (nucleic acid, chemistry not given here) DNA 1: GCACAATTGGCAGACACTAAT DNA 2: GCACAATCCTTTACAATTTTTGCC DNA 3: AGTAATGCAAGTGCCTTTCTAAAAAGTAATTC", "0.3 tumor cells"]
]}

Name the recorded Threshold of tumor cell numbers for HPV-16 detection of the molecule listed here: E6: previously designed (historical) HPV-16 E6 primers and Taqman probe, SEQ ID NO: 7-9, positive control (nucleic acid, Taqman probe, labels not given here) DNA 1: TCAGGACCCACAGGAGCG DNA 2: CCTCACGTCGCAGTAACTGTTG DNA 3: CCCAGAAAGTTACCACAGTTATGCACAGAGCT
0.3 tumor cells

Provide one value: measured Threshold of tumor cell numbers for HPV-16 detection of HR E5L2-4: primer/probe set for junction between E5 and L2, SEQ ID NO: 55-57 (same as SEQ ID NO: 4-6) (nucleic acid, chemistry not given here) DNA 1: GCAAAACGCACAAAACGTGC DNA 2: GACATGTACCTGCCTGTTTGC DNA 3: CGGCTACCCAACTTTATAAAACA
0.3 tumor cells

Please give measured Threshold of tumor cell numbers for HPV-16 detection of the following entry: BR E6-1: HPV-16 E6 region (172-373 bp) primer/probe set, SEQ ID NO: 58-60 (nucleic acid, chemistry not given here) DNA 1: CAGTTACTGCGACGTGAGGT DNA 2: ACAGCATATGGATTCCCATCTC DNA 3: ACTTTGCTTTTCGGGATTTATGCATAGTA
6.0 tumor cells

Look up and report measured Threshold of tumor cell numbers for HPV-16 detection for this entry: E7: previously designed (historical) HPV-16 E7 primers and Taqman probe, SEQ ID NO: 10-12; part of CLIA test (nucleic acid, Taqman probe, labels not given here, part of CLIA test) DNA 1: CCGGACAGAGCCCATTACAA DNA 2: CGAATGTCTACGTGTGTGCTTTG DNA 3: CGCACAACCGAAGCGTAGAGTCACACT
1.2 tumor cells

Could you please provide reported Threshold of tumor cell numbers for HPV-16 detection for BR E1-4: HPV-16 E1 region primer/probe set, SEQ ID NO: 37-39 (nucleic acid, chemistry not given here) DNA 1: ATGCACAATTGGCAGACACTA DNA 2: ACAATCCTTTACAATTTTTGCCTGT DNA 3: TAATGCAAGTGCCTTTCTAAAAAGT ? Thanks!
0.3 tumor cells
